Listed here: items and their measured DC50.
Target: BRG1 (Homo sapiens)
Construct: either BRM primary antibody (Cell signaling Cat #11966) or BRG primary antibody (Abcam, ab 110641); endogenous in cells; host or cells: SW1573
Sequence (P51532 whole entry): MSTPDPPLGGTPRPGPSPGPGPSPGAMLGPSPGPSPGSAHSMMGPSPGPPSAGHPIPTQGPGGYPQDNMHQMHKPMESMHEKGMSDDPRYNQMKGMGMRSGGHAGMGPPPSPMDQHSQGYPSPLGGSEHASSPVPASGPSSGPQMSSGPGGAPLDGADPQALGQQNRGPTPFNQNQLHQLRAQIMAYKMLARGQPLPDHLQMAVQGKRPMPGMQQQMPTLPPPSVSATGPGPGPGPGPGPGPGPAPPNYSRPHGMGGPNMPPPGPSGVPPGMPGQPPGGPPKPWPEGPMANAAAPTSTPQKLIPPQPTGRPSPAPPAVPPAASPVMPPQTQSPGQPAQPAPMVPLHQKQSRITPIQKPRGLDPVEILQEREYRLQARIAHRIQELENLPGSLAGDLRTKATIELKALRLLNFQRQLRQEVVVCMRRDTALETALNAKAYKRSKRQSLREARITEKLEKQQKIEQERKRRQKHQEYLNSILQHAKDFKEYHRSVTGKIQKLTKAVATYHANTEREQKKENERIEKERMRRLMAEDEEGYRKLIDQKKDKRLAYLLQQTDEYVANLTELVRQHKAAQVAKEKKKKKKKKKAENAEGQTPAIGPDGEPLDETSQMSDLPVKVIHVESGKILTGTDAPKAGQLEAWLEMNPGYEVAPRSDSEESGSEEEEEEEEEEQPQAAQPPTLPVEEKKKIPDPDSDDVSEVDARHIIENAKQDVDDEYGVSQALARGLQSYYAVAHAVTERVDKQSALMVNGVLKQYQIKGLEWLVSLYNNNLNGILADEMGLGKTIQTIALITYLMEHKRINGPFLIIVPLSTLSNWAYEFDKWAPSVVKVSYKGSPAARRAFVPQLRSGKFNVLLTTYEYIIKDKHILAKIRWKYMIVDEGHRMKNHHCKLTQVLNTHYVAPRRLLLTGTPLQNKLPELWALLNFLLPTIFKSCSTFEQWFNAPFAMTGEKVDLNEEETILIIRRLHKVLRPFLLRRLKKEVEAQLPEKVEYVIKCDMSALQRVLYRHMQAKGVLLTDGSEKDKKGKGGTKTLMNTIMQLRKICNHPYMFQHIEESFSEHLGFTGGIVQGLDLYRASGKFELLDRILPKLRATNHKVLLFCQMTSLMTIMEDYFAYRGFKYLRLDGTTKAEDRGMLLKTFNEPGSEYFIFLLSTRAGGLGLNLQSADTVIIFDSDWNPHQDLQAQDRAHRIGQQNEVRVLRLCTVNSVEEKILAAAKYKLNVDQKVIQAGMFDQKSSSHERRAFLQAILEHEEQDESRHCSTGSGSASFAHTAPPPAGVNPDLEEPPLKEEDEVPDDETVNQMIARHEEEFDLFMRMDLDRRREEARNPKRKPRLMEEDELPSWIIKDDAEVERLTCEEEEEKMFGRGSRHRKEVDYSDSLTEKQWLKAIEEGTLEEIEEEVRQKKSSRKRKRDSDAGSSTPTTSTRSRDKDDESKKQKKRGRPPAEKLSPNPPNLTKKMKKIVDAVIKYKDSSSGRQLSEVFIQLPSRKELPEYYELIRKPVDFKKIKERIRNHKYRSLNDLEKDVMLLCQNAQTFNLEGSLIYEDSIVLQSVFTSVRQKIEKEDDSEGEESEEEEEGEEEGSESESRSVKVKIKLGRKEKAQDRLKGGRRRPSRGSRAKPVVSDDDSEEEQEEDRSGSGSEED
Assay: Immunofluorescence assay for BRG1 degradation in SW1573 cells
Type: cell-based
Details: 20 hours incubation, immunofluorescence mean nuclear signal, read-out: BRG1 IF Degradation IC50

{"compound": "CN(CC#Cc1cc(N2C3CCC2CN(c2cc(-c4ccccc4O)nnc2N)C3)ccn1)CCO", "experimental-target": "BRG1 (Homo sapiens)", "measure": "DC50", "result": "10 to 100 nM"}
{"compound": "CN1CCOC2(C1)CN(CC#Cc1cc(N3C4CCC3CN(c3cc(-c5ccccc5O)nnc3N)C4)ccn1)C2", "experimental-target": "BRG1 (Homo sapiens)", "measure": "DC50", "result": "> 100 nM"}
{"compound": "COC1(C)CN(CC#Cc2cc(N3C4CCC3CN(c3cc(-c5ccccc5O)nnc3N)C4)ccn2)C1", "experimental-target": "BRG1 (Homo sapiens)", "measure": "DC50", "result": "10 to 100 nM"}
{"compound": "Nc1nnc(-c2ccccc2O)cc1N1CC2CCC(C1)N2c1ccnc(C#CCN2C[C@H]3CCCC[C@H]3C2)c1", "experimental-target": "BRG1 (Homo sapiens)", "measure": "DC50", "result": "< 10 nM"}
{"compound": "Nc1nnc(-c2ccccc2O)cc1N1CC2CCC(C1)N2c1ccnc(C#CCN2CC3(C2)CC3(F)F)c1", "experimental-target": "BRG1 (Homo sapiens)", "measure": "DC50", "result": "< 10 nM"}

Please report the recorded DC50 for Nc1nnc(-c2ccccc2O)cc1N1CC2CCC(C1)N2c1ccnc(C#CCN2CC3(COCCO3)C2)c1 .
10 to 100 nM

Please report the recorded DC50 for Nc1nnc(-c2ccccc2O)cc1N1CC2CCC(C1)N2c1ccnc(C#CCN2CCS(=O)(=O)CC2)c1 .
> 100 nM

Please report the recorded DC50 for Nc1nnc(-c2ccccc2O)cc1N1CC2CCC(C1)N2c1ccnc(C#CCN2CCCCC(F)(F)C2)c1 .
10 to 100 nM

Measured values drawn from patent US11993599B2 for this set.
